pIC50: −log10 of the molar value.
Data export: pIC50 values recorded with CSNK2A1 (CK2 alpha 1) (Homo sapiens (Human), UniProt P68400).
Sequence (P68400 whole entry): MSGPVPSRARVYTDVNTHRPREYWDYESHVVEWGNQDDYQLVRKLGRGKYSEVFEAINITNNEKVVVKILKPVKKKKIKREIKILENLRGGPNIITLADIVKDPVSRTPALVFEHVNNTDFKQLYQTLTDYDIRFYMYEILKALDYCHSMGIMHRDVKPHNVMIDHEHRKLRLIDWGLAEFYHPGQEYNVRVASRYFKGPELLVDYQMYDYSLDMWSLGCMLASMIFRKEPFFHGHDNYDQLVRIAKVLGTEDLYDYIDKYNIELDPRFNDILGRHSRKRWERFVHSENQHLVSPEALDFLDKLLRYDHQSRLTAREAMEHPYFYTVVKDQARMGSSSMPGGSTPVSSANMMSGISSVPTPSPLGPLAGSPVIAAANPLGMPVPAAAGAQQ

[[record]]
given_smiles = "O=C(O)c1ccc2c(c1)cc(-c1cc[nH]n1)c1ccncc12"
system_name = "CSNK2A1 (CK2 alpha 1) (Homo sapiens (Human), UniProt P68400)"
experimental_readout = "pIC50"
val = "> 6.52"

[[record]]
given_smiles = "O=C(O)c1ccc2c(c1)cc(C1CC1)c1ccncc12"
system_name = "CSNK2A1 (CK2 alpha 1) (Homo sapiens (Human), UniProt P68400)"
experimental_readout = "pIC50"
val = "> 6.52"

[[record]]
given_smiles = "CN(C)c1nccc2c(Br)cc3cc(C(=O)O)ccc3c12"
system_name = "CSNK2A1 (CK2 alpha 1) (Homo sapiens (Human), UniProt P68400)"
experimental_readout = "pIC50"
val = "5.30 to 6.00"

[[record]]
given_smiles = "O=C(O)c1ccc2c(ccc3ccncc32)c1"
system_name = "CSNK2A1 (CK2 alpha 1) (Homo sapiens (Human), UniProt P68400)"
experimental_readout = "pIC50"
val = "> 6.52"

[[record]]
given_smiles = "NC(=O)c1ccc2c(c1)cc(Br)c1ccnc(N)c12"
system_name = "CSNK2A1 (CK2 alpha 1) (Homo sapiens (Human), UniProt P68400)"
experimental_readout = "pIC50"
val = "5.30 to 6.00"

[[record]]
given_smiles = "O=C(O)c1ccc2c(c1)cc(Cl)c1ccncc12"
system_name = "CSNK2A1 (CK2 alpha 1) (Homo sapiens (Human), UniProt P68400)"
experimental_readout = "pIC50"
val = "> 6.52"


-- ask Please tell me: pIC50 of O=C(O)c1ccc2c(c1)cc(N1CCCCC1)c1ccncc12 , system CSNK2A1 (CK2 alpha 1) (Homo sapiens (Human), UniProt P68400)?
-- reply > 6.52

-- ask // lookup pIC50 | system=CSNK2A1 (CK2 alpha 1) (Homo sapiens (Human), UniProt P68400) | key= CNc1nccc2c(Br)cc3cc(C(=O)O)ccc3c12
-- reply 6.00 to 6.52

-- ask Kindly state the measured pIC50 obtained for O=C(O)c1ccc2c(c1)cc(Br)c1ccnc(Cl)c12 with CSNK2A1 (CK2 alpha 1) (Homo sapiens (Human), UniProt P68400).
-- reply > 6.52

-- ask Quick check: pIC50 on CSNK2A1 (CK2 alpha 1) (Homo sapiens (Human), UniProt P68400), item Cc1cc2cc(C(=O)O)ccc2c2cnccc12 ?
-- reply > 6.52

-- ask Recorded pIC50 for O=C(O)c1ccc2c(c1)cc(Nc1cccc(Cl)c1)c1ccncc12 with CSNK2A1 (CK2 alpha 1) (Homo sapiens (Human), UniProt P68400), please?
-- reply > 6.52

-- ask Notebook entry, CSNK2A1 (CK2 alpha 1) (Homo sapiens (Human), UniProt P68400) assay: pIC50 of O=C(O)c1ccc2c(ccc3ccnc(Cl)c32)c1 = ?
-- reply > 6.52

-- ask Notebook: pull reported pIC50 for CSNK2A1 (CK2 alpha 1) (Homo sapiens (Human), UniProt P68400), entry O=C(O)c1ccc2c(c1)cc(Br)c1ccnc(NC3CC3)c12
-- reply 5.30 to 6.00

-- ask Hello, I am looking for reported pIC50 with CSNK2A1 (CK2 alpha 1) (Homo sapiens (Human), UniProt P68400) for CC(C)Nc1cc2cc(C(=O)O)ccc2c2cnccc12 . Could you help?
-- reply > 6.52

-- ask Lab note: need pIC50 with CSNK2A1 (CK2 alpha 1) (Homo sapiens (Human), UniProt P68400) for entry O=C(O)c1ccc2c(c1)cc(NC1CCCCC1)c1ccncc12 , please look it up.
-- reply > 6.52

-- ask Query for CSNK2A1 (CK2 alpha 1) (Homo sapiens (Human), UniProt P68400): what pIC50 does the record show for O=C(O)c1ccc2c(c1)cc(-c1ccncc1)c1ccncc12 ?
-- reply > 6.52

-- ask Item: O=C(O)c1ccc2c(c1)cc(Br)c1cc(Cl)ncc12 Test system: CSNK2A1 (CK2 alpha 1) (Homo sapiens (Human), UniProt P68400) Read-out: pIC50 Value: ?
-- reply 5.30 to 6.00

-- ask Enter reported pIC50 observed with CSNK2A1 (CK2 alpha 1) (Homo sapiens (Human), UniProt P68400) for O=C(O)c1ccc2c(c1)cc(N[C@@H]1CCCNC1)c1ccncc12
-- reply 5.30 to 6.00

-- ask Request - read-out pIC50 | tested on CSNK2A1 (CK2 alpha 1) (Homo sapiens (Human), UniProt P68400) | molecule COc1nccc2c(Br)cc3cc(C(=O)O)ccc3c12
-- reply 6.00 to 6.52

-- ask Checklist item: pIC50 tested on CSNK2A1 (CK2 alpha 1) (Homo sapiens (Human), UniProt P68400), entry O=C(O)c1ccc2c(c1)cc(NC1CCC1)c1ccncc12 , value?
-- reply > 6.52

-- ask Find the measured pIC50: item O=C(O)c1ccc2c(c1)cc(-c1cccnc1)c1ccncc12 , target or system CSNK2A1 (CK2 alpha 1) (Homo sapiens (Human), UniProt P68400).
-- reply > 6.52

-- ask Lab request: please report pIC50 under test system CSNK2A1 (CK2 alpha 1) (Homo sapiens (Human), UniProt P68400) for O=C(O)c1ccc2c(c1)cc(Nc1ccc(Cl)cc1)c1ccncc12
-- reply > 6.52

-- ask What reported pIC50 corresponds to O=C(O)c1ccc2c(c1)cc(Br)c1ccncc12 on CSNK2A1 (CK2 alpha 1) (Homo sapiens (Human), UniProt P68400)?
-- reply > 6.52

-- ask Form field: pIC50 recorded for O=C(O)c1ccc2c(c1)cc(-c1ccc(Cl)cc1)c1ccncc12 with CSNK2A1 (CK2 alpha 1) (Homo sapiens (Human), UniProt P68400) (enter value)
-- reply 6.00 to 6.52

-- ask Which measured pIC50 belongs to Nc1ccc(-c2cc3cc(C(=O)O)ccc3c3cnccc23)cn1 , tested on CSNK2A1 (CK2 alpha 1) (Homo sapiens (Human), UniProt P68400)?
-- reply > 6.52

-- ask // lookup pIC50 | system=CSNK2A1 (CK2 alpha 1) (Homo sapiens (Human), UniProt P68400) | key= CC[C@H](C)Nc1cc2cc(C(=O)O)ccc2c2cnccc12
-- reply > 6.52

====

system: U-251; assay: Cell viability assay (CellTiter-Glo, day 7); assay type: cell-based; details: Homo sapiens, 168 h; U-251, day 7
pIC50: −log10 of the molar value.
Experimental readout: pIC50

-- ask Query for U-251: what pIC50 does the record show for Nc1nccc2c(Br)cc3cc(C(=O)[O-])ccc3c12.[Na+] ?
-- reply 5.00 to 6.00

====

tested on: TG-1; assay: AML cell viability (CellTiter-Glo, day 7); type: cell-based; details: TG1; TG-1, text statement; read-out: potency in cell viability assay
pIC50: −log10 of the molar value.
Experimental readout: pIC50

-- ask What value of measured pIC50 is listed for Nc1nccc2c(Br)cc3cc(C(=O)[O-])ccc3c12.[Na+] ?
-- reply > 6.00

====

tested on: RS4;11; assay: AML cell viability (CellTiter-Glo, day 7); type: cell-based; conditions: Homo sapiens, 168 h; RS4;11, day 7; read-out: Cell viability IC50
Experimental readout: IC50

-- ask Form: Entry = Nc1nccc2c(Br)cc3cc(C(=O)[O-])ccc3c12.[Na+] | System = RS4;11 | IC50 = ____
-- reply < 1000 nM

====

system: OE33; assay: Cell viability assay (CellTiter-Glo, day 7); assay type: cell-based; details: Homo sapiens, 168 h; OE33, day 7
pIC50: −log10 of the molar value.
Experimental readout: pIC50

-- ask Param item = Nc1nccc2c(Br)cc3cc(C(=O)[O-])ccc3c12.[Na+] ; retrieve measured pIC50.
-- reply > 6.00

====

molecular target: CDK8/cyclinC (Homo sapiens (Human), UniProt P49336); assay: CDK8 LanthaScreen Eu kinase binding assay; details: read-out: IC50 against CDK8
Sequence (P49336 whole entry): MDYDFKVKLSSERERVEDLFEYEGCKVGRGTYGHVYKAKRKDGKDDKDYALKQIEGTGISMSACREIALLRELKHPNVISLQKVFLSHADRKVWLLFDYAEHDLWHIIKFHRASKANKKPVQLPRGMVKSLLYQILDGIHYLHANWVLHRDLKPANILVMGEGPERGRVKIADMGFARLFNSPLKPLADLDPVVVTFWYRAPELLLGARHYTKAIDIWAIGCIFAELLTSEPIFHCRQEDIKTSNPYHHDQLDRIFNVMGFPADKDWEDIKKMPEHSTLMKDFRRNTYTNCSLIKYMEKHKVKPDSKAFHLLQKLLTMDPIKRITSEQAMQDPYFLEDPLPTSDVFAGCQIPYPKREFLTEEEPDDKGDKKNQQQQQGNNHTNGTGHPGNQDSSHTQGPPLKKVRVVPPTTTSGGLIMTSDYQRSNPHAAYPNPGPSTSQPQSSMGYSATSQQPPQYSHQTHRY
Sequence (P24863 whole entry partner): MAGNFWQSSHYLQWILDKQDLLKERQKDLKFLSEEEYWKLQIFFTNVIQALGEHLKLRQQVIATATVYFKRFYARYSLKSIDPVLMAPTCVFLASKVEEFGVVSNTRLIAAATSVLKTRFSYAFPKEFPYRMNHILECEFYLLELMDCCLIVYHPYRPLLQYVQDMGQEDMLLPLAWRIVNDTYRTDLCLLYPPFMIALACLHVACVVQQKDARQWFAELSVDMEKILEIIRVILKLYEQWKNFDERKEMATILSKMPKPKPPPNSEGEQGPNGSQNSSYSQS
Experimental readout: IC50

-- ask Can you share its IC50? I mean this compound: Nc1nccc2c(Br)cc3cc(C(=O)[O-])ccc3c12.[Na+]
-- reply < 300 nM

====

molecular target: HIPK2 (Homo sapiens (Human), UniProt Q9H2X6); assay: HIPK2 enzymatic activity inhibition (Z'-LYTE); format: biochemical; settings: read-out: HIPK2 IC50
Sequence (Q9H2X6 whole entry): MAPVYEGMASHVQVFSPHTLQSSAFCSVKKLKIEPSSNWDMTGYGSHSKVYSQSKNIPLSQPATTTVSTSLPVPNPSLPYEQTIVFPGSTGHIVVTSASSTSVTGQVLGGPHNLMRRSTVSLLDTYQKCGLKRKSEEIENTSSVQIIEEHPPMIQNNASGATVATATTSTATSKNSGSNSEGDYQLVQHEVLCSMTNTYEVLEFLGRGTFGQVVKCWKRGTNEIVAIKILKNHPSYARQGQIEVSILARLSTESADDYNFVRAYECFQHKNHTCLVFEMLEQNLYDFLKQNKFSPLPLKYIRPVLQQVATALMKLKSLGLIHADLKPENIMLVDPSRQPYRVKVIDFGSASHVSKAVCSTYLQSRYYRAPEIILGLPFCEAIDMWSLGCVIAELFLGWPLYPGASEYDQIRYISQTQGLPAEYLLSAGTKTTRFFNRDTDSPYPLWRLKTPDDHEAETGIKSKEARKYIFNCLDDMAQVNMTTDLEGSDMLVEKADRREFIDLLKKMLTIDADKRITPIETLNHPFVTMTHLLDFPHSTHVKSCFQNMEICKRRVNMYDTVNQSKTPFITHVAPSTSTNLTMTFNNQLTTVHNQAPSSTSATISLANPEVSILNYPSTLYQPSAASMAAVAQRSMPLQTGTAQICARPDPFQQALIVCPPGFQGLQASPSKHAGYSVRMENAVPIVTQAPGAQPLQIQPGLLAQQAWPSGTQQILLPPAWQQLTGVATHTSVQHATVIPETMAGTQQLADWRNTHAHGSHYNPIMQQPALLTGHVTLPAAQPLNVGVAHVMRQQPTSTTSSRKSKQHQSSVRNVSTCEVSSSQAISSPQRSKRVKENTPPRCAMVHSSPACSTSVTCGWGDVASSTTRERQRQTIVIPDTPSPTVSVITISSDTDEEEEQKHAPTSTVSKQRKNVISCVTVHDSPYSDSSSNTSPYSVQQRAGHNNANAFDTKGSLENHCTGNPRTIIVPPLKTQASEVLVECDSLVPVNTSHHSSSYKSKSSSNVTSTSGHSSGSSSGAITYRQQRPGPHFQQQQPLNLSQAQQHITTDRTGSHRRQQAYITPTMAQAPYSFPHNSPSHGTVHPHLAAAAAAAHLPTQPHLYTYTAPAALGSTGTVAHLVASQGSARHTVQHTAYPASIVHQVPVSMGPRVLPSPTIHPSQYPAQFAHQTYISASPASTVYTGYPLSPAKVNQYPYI
Listing: IC50 of selected compounds

[[record]]
given_smiles = "O=C(O)c1ccc2c(c1)cc(Br)c1cc(Cl)ncc12"
val = "> 5 µM"

[[record]]
given_smiles = "N[C@@H]1CCCN(c2cc3cc(C(=O)O)ccc3c3cnccc23)C1"
val = "> 5 µM"

[[record]]
given_smiles = "CC[C@@H](C)Nc1cc2cc(C(=O)O)ccc2c2cnccc12"
val = "< 0.3 µM"

[[record]]
given_smiles = "O=C(O)c1ccc2c(c1)cc(Br)c1ccncc12"
val = "< 0.3 µM"

[[record]]
given_smiles = "Nc1nccc2cc(Br)c3cc(C(=O)O)ccc3c12"
val = "< 0.3 µM"


-- ask Please give the measured IC50 for this compound: O=C(O)c1ccc2c(c1)cc(NC1CC1)c1ccncc12
-- reply < 0.3 µM

-- ask Name the recorded IC50 for Nc1nccc2c(Br)cc3cc(C(=O)[O-])ccc3c12.[Na+] .
-- reply < 0.3 µM
